Give IC50 for every item shown.
- Test system: NUGC3 cells (p53 Y220C)
- MEASUREMENT DESCRIPTION: Cell Proliferation Assay (CellTiter-Glo), NUGC3 p53 Y220C
- Type: cell-based
- EXPERIMENTAL SETUP: Homo sapiens, NUGC-3, 120 h, 5 days, read-out: CTG NUGC3 P53 Y220C IC50

Recorded IC50, per entry:
>  <COMPOUND>
CN1CC[C@@H](Nc2cccn3c(SC(F)(F)F)c(-c4noc(CNC(=O)c5nnc(N(C)C)s5)n4)cc23)[C@@H](F)C1 [Example 82]

>  <TESTED TARGET>
NUGC3 cells (p53 Y220C)

>  <ASSAY READOUT>
IC50

>  <ENDPOINT RESULT>
< 0.75 µM

$$$$
>  <COMPOUND>
CN1CC[C@@H](Nc2cccn3c(SC(F)(F)F)c(-c4noc(CNC(=O)C5(C(F)(F)F)CC5)n4)cc23)[C@@H](F)C1 [Example 47]

>  <TESTED TARGET>
NUGC3 cells (p53 Y220C)

>  <ASSAY READOUT>
IC50

>  <ENDPOINT RESULT>
≥ 3 µM

$$$$
>  <COMPOUND>
C[C@@H](O)CC(=O)NCc1nc(-c2cc3c(N[C@@H]4CCN(C)C[C@@H]4F)cccn3c2SC(F)(F)F)no1 [Example 63]

>  <TESTED TARGET>
NUGC3 cells (p53 Y220C)

>  <ASSAY READOUT>
IC50

>  <ENDPOINT RESULT>
1.5 to 3 µM

$$$$
>  <COMPOUND>
CN1CC[C@@H](Nc2cccn3c(SC(F)(F)F)c(-c4noc(CNC(=O)c5cnc(N6CCOCC6)o5)n4)cc23)[C@@H](F)C1 [Example 66]

>  <TESTED TARGET>
NUGC3 cells (p53 Y220C)

>  <ASSAY READOUT>
IC50

>  <ENDPOINT RESULT>
< 0.75 µM

$$$$
>  <COMPOUND>
COc1ccc2cc(C(=O)NCc3nc(-c4cc5c(N[C@@H]6CCN(C)C[C@@H]6F)cccn5c4SC(F)(F)F)no3)n(C)c2c1 [Example 35]

>  <TESTED TARGET>
NUGC3 cells (p53 Y220C)

>  <ASSAY READOUT>
IC50

>  <ENDPOINT RESULT>
1.5 to 3 µM

$$$$

Fill in IC50 for each of the 7 compounds listed.
1. CN1CC[C@@H](Nc2cccn3c(SC(F)(F)F)c(-c4noc(CNC(=O)c5ncn[nH]5)n4)cc23)[C@@H](F)C1 [Example 75]
2. CN1CC[C@@H](Nc2cccn3c(SC(F)(F)F)c(-c4noc(CNC(=O)[C@@H]5COCCO5)n4)cc23)[C@@H](F)C1 [Example 11]
3. CN1CC[C@@H](Nc2cccn3c(SC(F)(F)F)c(-c4noc(CNC(=O)[C@@H]5COCCN5C)n4)cc23)[C@@H](F)C1 [Example 69]
4. CN1CC[C@@H](Nc2cccn3c(SC(F)(F)F)c(-c4noc(CNC(=O)c5csc(N6CCOCC6)n5)n4)cc23)[C@@H](F)C1 [Example 20]
5. CN1CC[C@@H](Nc2cccn3c(SC(F)(F)F)c(-c4noc(CNC(=O)c5ccc6c(c5)CC(=O)N6)n4)cc23)[C@@H](F)C1 [Example 18]
6. CN1CC[C@@H](Nc2cccn3c(SC(F)(F)F)c(-c4noc(CNC(=O)C(C)(C)O)n4)cc23)[C@@H](F)C1 [Example 49]
7. CNC(=O)c1coc(NCc2nc(-c3cc4c(N[C@@H]5CCN(C)C[C@@H]5F)cccn4c3SC(F)(F)F)no2)n1 [Example 81]

1. 0.75 to 1.5 µM
2. 0.75 to 1.5 µM
3. ≥ 3 µM
4. < 0.75 µM
5. < 0.75 µM
6. ≥ 3 µM
7. 0.75 to 1.5 µM

Fill in IC50 for each of the 2 compounds listed.
1. CN1CC[C@@H](Nc2cccn3c(SC(F)(F)F)c(-c4noc(CNC(=O)c5ccc6c(c5)NC(=O)CN6C)n4)cc23)[C@@H](F)C1 [Example 23]
2. CN1CC[C@@H](Nc2cccn3c(SC(F)(F)F)c(-c4noc(CNC(=O)c5nsc(N(C)C)n5)n4)cc23)[C@@H](F)C1 [Example 93]

< 0.75 µM
< 0.75 µM
